# TARGET OR TEST SYSTEM: Mtr4 E1033A-archless E1033A (Saccharomyces cerevisiae)
# Sequence: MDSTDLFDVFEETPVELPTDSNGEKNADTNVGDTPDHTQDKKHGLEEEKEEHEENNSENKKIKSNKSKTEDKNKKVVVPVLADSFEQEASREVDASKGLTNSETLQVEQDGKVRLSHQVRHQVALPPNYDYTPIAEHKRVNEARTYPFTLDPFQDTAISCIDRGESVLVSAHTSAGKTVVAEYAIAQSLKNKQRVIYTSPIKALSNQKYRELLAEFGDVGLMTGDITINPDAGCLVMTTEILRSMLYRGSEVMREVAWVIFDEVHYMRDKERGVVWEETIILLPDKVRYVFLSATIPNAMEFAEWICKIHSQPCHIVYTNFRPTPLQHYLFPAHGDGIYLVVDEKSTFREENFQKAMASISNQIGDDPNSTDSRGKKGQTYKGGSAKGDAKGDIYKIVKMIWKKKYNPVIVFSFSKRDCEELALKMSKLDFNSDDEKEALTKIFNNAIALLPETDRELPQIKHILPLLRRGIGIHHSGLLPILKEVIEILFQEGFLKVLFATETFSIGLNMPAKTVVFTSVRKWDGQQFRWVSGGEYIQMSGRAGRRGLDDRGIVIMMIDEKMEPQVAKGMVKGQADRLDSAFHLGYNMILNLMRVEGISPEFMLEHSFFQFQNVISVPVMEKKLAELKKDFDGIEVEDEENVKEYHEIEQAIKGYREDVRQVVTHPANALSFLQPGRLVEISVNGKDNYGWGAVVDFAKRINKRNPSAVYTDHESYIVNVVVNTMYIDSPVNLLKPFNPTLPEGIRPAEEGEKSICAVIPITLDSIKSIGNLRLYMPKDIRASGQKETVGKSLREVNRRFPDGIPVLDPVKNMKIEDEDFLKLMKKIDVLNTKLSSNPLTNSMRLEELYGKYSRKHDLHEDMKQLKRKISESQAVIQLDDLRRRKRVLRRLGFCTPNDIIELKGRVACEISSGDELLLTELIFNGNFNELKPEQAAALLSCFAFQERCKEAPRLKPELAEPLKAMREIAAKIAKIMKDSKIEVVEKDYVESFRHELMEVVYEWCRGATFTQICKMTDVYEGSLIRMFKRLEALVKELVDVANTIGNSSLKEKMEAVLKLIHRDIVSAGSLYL
# PROTOCOL TEXT: fluorescence anisotropy
# CONDITION INFO: FA: 40 mM MOPS pH 6.5, 100 mM NaCl, 0.5 mM MgCl2, 5% glycerol, 0.01% NP-40 substitute, 2 mM DTT, 60 nM RNA, 30 C; EMSA conditions not in material
EXPERIMENTAL ENDPOINT: Kd (µM)
Kindly answer with a numeric value in µM, unit omitted.

In: Tell me measured Kd for GCGUCUUUACGGUGCUUAAAAA / AGCACCGUAAAGACGC [poly(A) substrate R22A/R16, fluorescein] please.
Out: 4.8
